Data provenance is patent US20140093973A1.

# Assay target: soluble HLA-A*0201 (sHLA-A*0201) (human)
Outcome measure: IC50
Express the reported value numerically, then name its unit.

Summary for this binder, KLGEFYNQMM (modifications not checked) […] : IC50 is 7.67 µM
